test system: SNB-19 CNS; experiment: NCI tumour cell line growth inhibition, 48 h; in the data active = GI50 below about 0.43 µM; inactive = the rest
Possible outcomes: 1 (yes) for active, 0 (no) for inactive

Compound | Target desc | Label class
COc1cc(-c2cc(-c3cccs3)c(C#N)c(N3CCOCC3)n2)cc(OC)c1OC | SNB-19 CNS | 0 (no)
O=C(CN1CCN(CCN2C(=O)c3cccc4cccc(c34)C2=O)CC1)Nc1ccc2ncsc2c1 | SNB-19 CNS | 0 (no)
CC(C)(C)[Si](C)(C)OC1[C@@H](O[Si](C)(C)C(C)(C)C)[C@@H](CNC(=O)NC(=O)NC(=O)CCl)O[C@H]1n1cnc2c(NC(=O)Nc3ccccc3)ncnc21 (stereo partly drawn) | SNB-19 CNS | 0 (no)
CN1C(=O)/C(=C2\S/C(=N\c3nnc(-c4ccccc4)o3)NC2=O)c2ccccc21 | SNB-19 CNS | 0 (no)
COc1ccc(C2CC(c3ccccc3)=NN2C(=O)c2cc(OC)c(OC)c(OC)c2)cc1O (stereo not drawn) | SNB-19 CNS | 0 (no)
O=C(NCCCl)NCCN1c2nc3ccccc3cc2Sc2cc3ccccc3nc21 | SNB-19 CNS | 0 (no)
Cc1cc(O[C@@H]2O[C@@H](C)[C@H](O)[C@@H](O)[C@H]2O)c2c3c(c(O[C@@H]4O[C@@H](C)[C@H](O)[C@@H](O)[C@H]4O)cc2c1)C(=O)c1c(O)cccc1C3=O | SNB-19 CNS | 0 (no)
O=C1Nc2ccc(O)cc2/C1=C\c1ccncc1 | SNB-19 CNS | 0 (no)
Fc1ccc(Nc2ncc(-c3cc(F)c(Cl)cc3Cl)s2)cc1Cl | SNB-19 CNS | 0 (no)
COc1ccc2nc3cc(Cl)ccc3c(NCCNCC(O)CO)c2c1 (stereo not drawn) | SNB-19 CNS | 0 (no)
CON=C1C[C@]2(C[C@@H]3C[C@@H](C/C=C(\C)C[C@@H](C)/C=C/C=C4\CO[C@@H]5[C@H](O)C(C)=C[C@@H](C(=O)O3)[C@]45O)O2)O[C@H](/C(C)=C/C(C)C)[C@H]1C | SNB-19 CNS | 0 (no)
CCCCCCCCCCCCNC(=O)N[C@H](C(=O)N[C@H]1/C=C/CCNC(=O)/C=C/[C@H](C)NC1=O)C(C)C | SNB-19 CNS | 1 (yes)
O=C(/C=C/c1ccco1)Nc1ncc(Cc2cccc(C(F)(F)F)c2)s1 | SNB-19 CNS | 1 (yes)
c1ccc(COCC[P+](c2ccccc2)(c2ccccc2)c2ccccc2)cc1 | SNB-19 CNS | 0 (no)
Cc1cncc(-c2nc(NCCc3c[nH]c4ccccc34)c3ncn(C(C)C)c3n2)c1 | SNB-19 CNS | 0 (no)
C=C1C[C@@H](O)[C@@H](Br)C(C)(C)[C@]12CCC(C)(Br)C(Cl)C2 (stereo partly drawn) | SNB-19 CNS | 0 (no)
CC(=O)NC(CS)C(=O)O (stereo not drawn) | SNB-19 CNS | 0 (no)
O=C(Nc1ccc(Oc2ccc(NC(=O)Nc3ccccc3Cl)cc2)cc1)Nc1ccccc1Cl | SNB-19 CNS | 0 (no)
